system.name: T1, human MSLN-hFc recombinant protein (human, UniProt Q13421 296-580)
T1 construct: Captured by an anti-human IgG antibody on the chip; also called human MSLN protein; Acro MSN-H5253
assay.details: SPR (Biacore 8K), MSLN-hFc captured, antibody injected
Quick reference: kon of the listed items.
Please reply with the bare figure in M⁻¹ s⁻¹ and do not write the unit itself.

| binder | recorded.value |
| --- | --- |
| F2.39.3-H9 (scFv, not shown: small tags and cut ends, also called S009-F2.39.3 humanized antibody VH3 + VL1) scFv: EVQLVQSGAEVKKPGASVKVSCKASGYTFTNYWMHWVRQAPGQGLEWMGNINPSSGDSYYNERFMSRVTMTVDKSTSTAYMELSSLRSEDTAVYYCARSGGLWLAFWGPGTLVTVSSGGGGSGGGGSGGGGSDIVMTQSPDSLAVSLGERATINCKSSQTLLNSVSQNNYLAWYQQKPGQSPKLLIYFASTRESGVPDRFSGSGSGTDFTLTISSLQAEDVAVYYCQQHYRTPYTFGGGTKVEIK | 43500 |

Here is the next item to consider.
// kon value for F7.44.20-H5 (scFv, not shown: small tags and cut ends, also called S009-F7.44.20 humanized antibody VH1a + VL1) scFv: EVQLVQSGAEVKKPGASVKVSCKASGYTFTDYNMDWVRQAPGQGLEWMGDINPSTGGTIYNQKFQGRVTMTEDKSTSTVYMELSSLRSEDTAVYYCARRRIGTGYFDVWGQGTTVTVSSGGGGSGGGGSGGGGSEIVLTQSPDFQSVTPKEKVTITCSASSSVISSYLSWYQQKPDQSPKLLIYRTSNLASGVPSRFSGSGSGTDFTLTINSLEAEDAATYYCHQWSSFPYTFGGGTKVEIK : 442000

meta.source: patent US20250250357A1
